Each record here notes measured Scent Emission Amount.
Tested on: lipase preparation AY “Amano” 30SD
Experiment Description: Lipase-induced scent emission test, lipase preparation AY “Amano” 30SD
Type: biochemical
Measurement Conditions: GC/MS head space peak area of scent-emitting compound minus water control; 10 mg fragrance precursor + 1 g aqueous 1% lipase preparation solution

{"columns": ["Compound", "Scent Emission Amount"],
 "data": [
  ["O=C(C=Cc1ccccc1)OCC=Cc1ccccc1 [cinnamyl cinnamate]", "24,711,289"],
  ["CC(C)=CCC/C(C)=C/COC(=O)c1ccccc1 [geranyl benzoate]", "78,461,812"],
  ["O=C(Cc1ccccc1)OCCc1ccccc1 [phenylethyl phenylacetate]", "50,855,859"],
  ["O=C(C=Cc1ccccc1)OCCc1ccccc1 [phenylethyl cinnamate]", "22,892,002"],
  ["C=C(C)CCC[C@H](C)CCOC(=O)Cc1ccccc1 [rosinyl phenylacetate]", "56,492,946"],
  ["CC/C=C\\CCOC(=O)c1ccccc1O [(Z)-3-hexenyl salicylate]", "16,933,990"],
  ["CC(C)[C@@H]1CC[C@@H](C)C[C@H]1OC(=O)c1ccccc1", "82,023,336"],
  ["CC(C)=CCC/C(C)=C/COC(=O)Cc1ccccc1 [geranyl phenylacetate]", "54,842,763"],
  ["O=C(OCCc1ccccc1)c1ccccc1 [phenylethyl benzoate]", "96,460,830"],
  ["CC/C=C\\CCOC(=O)c1ccccc1 [Example 11, (Z)-3-hexenyl Benzoate]", "49,663,459"],
  ["CCCC(CC[C@@H]1[C@@H](C)CCCC1(C)C)OC(=O)c1ccc(OC)cc1 (stereo partly shown)", "40,373,157"],
  ["COc1ccc(C(=O)OCC[C@@H](C)CC/C=C(\\C)CCC=C(C)C)cc1", "23,338,647"],
  ["CC(C)=CCC/C(C)=C/CC[C@H](C)CCOC(=O)c1ccccc1", "88,986,381"]
]}

###

Test Target: lipase preparation Lipex 100 L (Thermomyces lanuginosus, UniProt O59952, N255R/T253R)
Construct: purchased Novozymes Lipex 100 L
Sequence (O59952 23-291 T253R/N255R): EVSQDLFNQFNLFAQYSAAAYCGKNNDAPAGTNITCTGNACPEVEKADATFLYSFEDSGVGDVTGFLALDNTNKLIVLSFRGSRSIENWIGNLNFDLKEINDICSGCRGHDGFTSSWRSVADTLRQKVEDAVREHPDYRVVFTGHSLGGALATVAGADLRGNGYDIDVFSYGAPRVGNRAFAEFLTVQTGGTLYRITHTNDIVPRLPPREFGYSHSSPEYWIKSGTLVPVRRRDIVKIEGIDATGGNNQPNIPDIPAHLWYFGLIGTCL
Experiment Description: Lipase-induced scent emission test, lipase preparation Lipex 100 L
Assay type: biochemical
Measurement Conditions: GC/MS head space peak area of scent-emitting compound minus water control; 10 mg fragrance precursor + 1 g aqueous 1% lipase preparation solution

{"columns": ["Compound", "Scent Emission Amount"],
 "data": [
  ["CC(C)=CCC[C@H](C)CCOC(=O)c1ccccc1 [Example 1, 3,7-dimethyl-6-octenyl benzoate]", "28,098,876"],
  ["CCCC(CC[C@@H]1[C@@H](C)CCCC1(C)C)OC(=O)c1ccc(OC)cc1 (some centres unmarked)", "40,430,750"],
  ["COc1cc(C=O)ccc1OC(=O)c1ccccc1 [Example 13, 4-formyl-2-methoxyphenyl Benzoate]", "47,188,750"],
  ["C=CCc1ccc(OC(=O)c2ccccc2)c(OC)c1 [Example 12, 4-allyl-2-methoxyphenyl benzoate]", "164,744,420"],
  ["CC(C)=CCC/C(C)=C/CC[C@H](C)CCOC(=O)/C=C/c1ccccc1", "19,967,420"]
]}

###

System: Propionibacterium acnes JCM6473
Experiment Description: Scent emission test by microorganism, Propionibacterium acnes
Assay type: cell-based
Measurement Conditions: GC/MS head space peak area minus control culture; 10 mg fragrance precursor in 3 mL culture solution, static culture 28° C., 3 days

{"columns": ["Compound", "Scent Emission Amount"],
 "data": [
  ["O=C(C=Cc1ccccc1)OCCc1ccccc1 [phenylethyl cinnamate]", "112,497,882"],
  ["CC(C)=CCC/C(C)=C/COC(=O)c1ccccc1 [geranyl benzoate]", "105,061,217"],
  ["CC(C)=CCCC(C)CCOC(=O)Cc1ccccc1 (stereo not shown) [citronellyl phenylacetate]", "292,401,763"],
  ["C=CCCCCCCCCOC(=O)c1ccccc1 [Example 14, 9-decenyl Benzoate]", "133,440,692"]
]}

The measurements presented in this section are drawn from patent US11802258B2.
